TARGET UNDER TEST: human GPR40 (Homo sapiens)
Construct: expressed in transfected cells
ASSAY NOTES: Inositol Phosphate Turnover (IP1) Assay
Type: cell-based
RECORDED CONDITIONS: HEK cells stably expressing human GPR40; CisBio IP-One kit; 60 minutes at 37 degrees; read-out: Human IP1 EC50
OBSERVED PROPERTY: EC50 (µM)
Lab book: enter the figure in µM, no units written.

{"COMPOUND": "Cc1ccc(OC(F)(F)F)c(CN2CCC3(CCc4ccc([C@H](C5CC5)[C@H](C)C(=O)O)cc4O3)CC2)c1 [Example 77]", "EC50 (µM)": 0.0234}
{"COMPOUND": "C[C@H](C(=O)O)[C@H](c1ccc2c(c1)OC1(CC2)CC(NCc2cc(C(F)(F)F)ccc2C(F)(F)F)C1)C1CC1 (single isomer, unassigned) [Example 96]", "EC50 (µM)": 0.0123}
{"COMPOUND": "COc1ccc(C(F)(F)F)c(C(C)N2CCC3(CCc4ccc([C@H](C5CC5)[C@H](C)C(=O)O)cc4O3)CC2)n1 (single isomer, unassigned) [Example 105]", "EC50 (µM)": 0.126}
{"COMPOUND": "C[C@H](C(=O)O)[C@H](c1ccc2c(c1)OC1(CC2)[C@@H]2CC[C@H]1CN([C@H](C)c1cc(C(F)(F)F)ccc1C(F)(F)F)C2)C1CC1 (single isomer, unassigned) [Example 83]", "EC50 (µM)": 0.798}

IN: What EC50 value was documented for this compound, C[C@H](C(=O)O)[C@H](c1ccc2c(c1)OC1(CC2)CC(N(C)Cc2cc(C(F)(F)F)ccc2C(F)(F)F)C1)C1CC1 (single isomer, unassigned) [Example 98] ?
OUT: 0.00162

====

TARGET UNDER TEST: human GPR40 (Homo sapiens, UniProt O14842)
Construct: expressed in transfected cells
Sequence (O14842 whole entry): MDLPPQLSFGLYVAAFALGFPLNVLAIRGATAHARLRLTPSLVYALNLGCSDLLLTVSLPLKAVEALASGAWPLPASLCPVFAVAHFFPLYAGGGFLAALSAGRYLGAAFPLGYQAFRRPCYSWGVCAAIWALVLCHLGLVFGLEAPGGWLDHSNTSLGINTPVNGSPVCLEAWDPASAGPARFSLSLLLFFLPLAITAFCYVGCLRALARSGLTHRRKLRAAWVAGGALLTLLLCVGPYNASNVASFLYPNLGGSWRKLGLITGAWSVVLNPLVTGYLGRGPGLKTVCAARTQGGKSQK
ASSAY NOTES: Inositol Phosphate Turnover (IP1) Assay
Assay type: cell-based
RECORDED CONDITIONS: HEK cells stably expressing human GPR40; CisBio IP-One kit; 60 minutes at 37 degrees; read-out: Human IP1 EC50
pEC50: −log10 of the molar value.
# cutoff 8 applies to pEC50; >= gives yes, < gives no

Check out these entries, answers already filled in.
{"MOLECULE": "C[C@H](C(=O)O)[C@H](c1ccc2c(c1)OC1(CC2)CCC(Nc2ncccc2C(F)(F)F)CC1)C1CC1 (single isomer, unassigned) [Example 65]", "TARGET UNDER TEST": "human GPR40 (Homo sapiens, UniProt O14842)", "CLASS": "no"}
{"MOLECULE": "C[C@H](C(=O)O)[C@H](c1ccc2c(c1)OC1(CC2)CC2(CN([C@@H](C)c3cc(C(F)(F)F)ccc3C(F)(F)F)C2)C1)C1CC1", "TARGET UNDER TEST": "human GPR40 (Homo sapiens, UniProt O14842)", "CLASS": "yes"}
{"MOLECULE": "C[C@H](C(=O)O)[C@H](c1ccc2c(c1)OC1(CC2)CCN([C@H](C)c2cc(C(F)(F)F)ccc2C(F)(F)F)CC1)C1CC1", "TARGET UNDER TEST": "human GPR40 (Homo sapiens, UniProt O14842)", "CLASS": "yes"}

IN: I'd appreciate it if you could say whether CC(c1cc(-c2ccoc2)ccc1OC(F)(F)F)N1CCC2(CCc3ccc([C@H](C4CC4)[C@H](C)C(=O)O)cc3O2)CC1 (single isomer, unassigned) [Example 118] has pEC50 at least equal to 8.
OUT: yes

====

TARGET UNDER TEST: human GPR40 (Homo sapiens, UniProt O14842)
Construct: expressed in transfected cells
ASSAY NOTES: Inositol Phosphate Turnover (IP1) Assay
Assay type: cell-based
RECORDED CONDITIONS: HEK cells stably expressing human GPR40; CisBio IP-One kit; 60 minutes at 37 degrees; read-out: Human IP1 EC50
# pEC50 per record follows
Scale note: pEC50 = -log10(concentration in M).

IN: What pEC50 value was documented for this molecule, C[C@H](C(=O)O)[C@H](c1ccc2c(c1)OC1(CC2)CCC(N(C)c2cc(C(F)(F)F)ccc2C(F)(F)F)CC1)C1CC1 (stereo partly drawn) [Example 70] ?
OUT: 8.76

IN: What pEC50 value was documented for this molecule, C[C@H](C(=O)O)[C@H](c1ccc2c(c1)OC1(CC2)CCN(c2ccc3nc(C(F)(F)F)cn3n2)CC1)C1CC1 ?
OUT: 6.26

IN: What pEC50 value was documented for this molecule, C[C@H](C(=O)O)[C@H](c1ccc2c(c1)OC1(CC2)CCN([C@@H](C)c2cc(F)ccc2OC(F)(F)F)CC1)C1CC1 ?
OUT: 7.95

IN: What pEC50 value was documented for this molecule, CC(c1cc(Cl)cc(Cl)c1OC(F)F)N1CCC2(CCc3ccc([C@H](C4CC4)[C@H](C)C(=O)O)cc3O2)CC1 (single isomer, unassigned) [Example 79] ?
OUT: 8.61

IN: What pEC50 value was documented for this molecule, C[C@H](C(=O)O)[C@H](c1ccc2c(c1)OC1(CCCN([C@H](C)c3cc(C(F)(F)F)ccc3C(F)(F)F)C1)CC2)C1CC1 (single isomer, unassigned) [Example 73] ?
OUT: 6.73

IN: What pEC50 value was documented for this molecule, C[C@H](C(=O)O)[C@H](c1ccc2c(c1)OC1(CC2)CCN(S(=O)(=O)c2cc(C(F)(F)F)ccc2Cl)CC1)C1CC1 ?
OUT: 7.74

====

# pEC50 per record follows
TARGET UNDER TEST: human GPR40 (Homo sapiens)
Construct: expressed in transfected cells
ASSAY NOTES: Inositol Phosphate Turnover (IP1) Assay
Type: cell-based
RECORDED CONDITIONS: HEK cells stably expressing human GPR40; CisBio IP-One kit; 60 minutes at 37 degrees; read-out: Human IP1 EC50
Scale note: pEC50 = -log10(concentration in M).

{"COMPOUND": "C[C@H](C(=O)O)[C@H](c1ccc2c(c1)OC1(CC2)[C@@H]2CC[C@H]1CN([C@H](C)c1cc(F)ccc1C(F)(F)F)C2)C1CC1 (stereo partly drawn) [Example 84]", "TARGET UNDER TEST": "human GPR40 (Homo sapiens)", "pEC50": 7.55}
{"COMPOUND": "C[C@H](C(=O)O)[C@H](c1ccc2c(c1)OC1(CC2)[C@@H]2CC[C@H]1CN([C@@H](C)c1cc(C(F)(F)F)ccc1C(F)(F)F)C2)C1CC1 (stereo partly drawn) [Example 86]", "TARGET UNDER TEST": "human GPR40 (Homo sapiens)", "pEC50": 7.33}

IN: What pEC50 value was documented for this compound, CC(c1cc(-c2ccoc2)ccc1OC(F)(F)F)N1CCC2(CCc3ccc([C@H](C4CC4)[C@H](C)C(=O)O)cc3O2)CC1 (single isomer, unassigned) [Example 117] ?
OUT: 7.43

====

TARGET UNDER TEST: human GPR40 (Homo sapiens)
Construct: expressed in transfected cells
ASSAY NOTES: Inositol Phosphate Turnover (IP1) Assay
Assay type: cell-based
RECORDED CONDITIONS: HEK cells stably expressing human GPR40; CisBio IP-One kit; 60 minutes at 37 degrees; read-out: Human IP1 EC50
pEC50: −log10 of the molar value.
# cutoff 8 applies to pEC50; >= gives met, < gives not met

{"COMPOUND": "C[C@H](C(=O)O)[C@H](c1ccc2c(c1)OC1(CCCN([C@H](C)c3cc(C(F)(F)F)ccc3C(F)(F)F)CC1)CC2)C1CC1 (single isomer, unassigned) [Example 50]", "TARGET UNDER TEST": "human GPR40 (Homo sapiens)", "CLASS": "met"}
{"COMPOUND": "C[C@H](C(=O)O)[C@H](c1ccc2c(c1)OC1(CC2)CCN(Cc2cc(C(F)(F)F)ccc2C(F)(F)F)CC1)C1CC1", "TARGET UNDER TEST": "human GPR40 (Homo sapiens)", "CLASS": "met"}
{"COMPOUND": "C[C@H](C(=O)O)[C@H](c1ccc2c(c1)OC1(CC2)CCC(Nc2ncccc2C(F)(F)F)CC1)C1CC1 (single isomer, unassigned) [Example 68]", "TARGET UNDER TEST": "human GPR40 (Homo sapiens)", "CLASS": "met"}
{"COMPOUND": "C[C@H](C(=O)O)[C@H](c1ccc2c(c1)OC1(CC2)CCN(Cc2cc(Cl)cc3c2OC(C)(C)C3)CC1)C1CC1", "TARGET UNDER TEST": "human GPR40 (Homo sapiens)", "CLASS": "not met"}
{"COMPOUND": "C[C@H](C(=O)O)[C@H](c1ccc2c(c1)OC1(CC2)CCN([C@@H](C)c2cc(C(F)(F)F)ccc2C(F)(F)F)CC1)C1CC1", "TARGET UNDER TEST": "human GPR40 (Homo sapiens)", "CLASS": "not met"}

IN: I'd appreciate it if you could say whether C[C@H](C(=O)O)[C@H](c1ccc2c(c1)OC1(CC2)CC(N[C@H](C)c2cc(C(F)(F)F)ccc2C(F)(F)F)C1)C1CC1 (stereo partly drawn) [Example 93] has pEC50 at least equal to 8.
OUT: met

IN: I'd appreciate it if you could say whether CC(c1cc(C2CC2)ccc1C(F)(F)F)N1CCC2(CCc3ccc([C@H](C4CC4)[C@H](C)C(=O)O)cc3O2)CC1 (single isomer, unassigned) [Example 58] has pEC50 at least equal to 8.
OUT: met

The measurements presented in this section are drawn from patent US10968232B2.
